Measured values drawn from ChEMBL document CHEMBL1158636 for this set.

Assay: Inhibition of gamma-secretase-mediated APP cleavage assessed as amyloid beta40 level after 2 hrs by ELISA
pIC50: −log10 of the molar value.
assay.metric: pIC50

Known pIC50 results, listed for orientation:
>>> recorded_number("O=C1c2[nH]ncc2C(C2CC2)N(S(=O)(=O)c2ccc(C(F)(F)F)nc2)C12CC2 (stereo in doubt; 16f)")
8.85
>>> recorded_number("CC1C(=O)c2[nH]ncc2C(C)N1S(=O)(=O)c1ccc(C(F)(F)F)cc1 (configuration not stated)")
8.17
>>> recorded_number("O=C1c2[nH]ncc2C(C2CC2)N(S(=O)(=O)c2ccc(C(F)(F)F)nc2)C12CC2 (racemic)")
8.74
>>> recorded_number("O=C1c2[nH]ncc2C(C2CC2)N(S(=O)(=O)c2ccc(C(F)(F)F)cc2)C12CCCC2 (racemic)")
9.40

I = O=S(=O)(c1ccc(C(F)(F)F)nc1)N1C(C2CC2)c2cn[nH]c2C(F)(F)C12CC2 (racemic)
II = C[C@@H]1C(=O)c2[nH]ncc2[C@H](C)N1S(=O)(=O)c1ccc(C(F)(F)F)nc1 (stereo in doubt)
III = CC[C@@H]1c2cn[nH]c2C(F)(F)[C@H](CC)N1S(=O)(=O)c1ccc(C(F)(F)F)nc1 (relative stereo)
stdin: // smallest pIC50 at index 0, largest at the end # format: label list in the order the request specifies
stdout: II, III, I
